TGT: Sialic acid-binding Ig-like lectin 9 (Homo sapiens) (UniProt Q9Y336)
Sequence (Q9Y336 whole entry): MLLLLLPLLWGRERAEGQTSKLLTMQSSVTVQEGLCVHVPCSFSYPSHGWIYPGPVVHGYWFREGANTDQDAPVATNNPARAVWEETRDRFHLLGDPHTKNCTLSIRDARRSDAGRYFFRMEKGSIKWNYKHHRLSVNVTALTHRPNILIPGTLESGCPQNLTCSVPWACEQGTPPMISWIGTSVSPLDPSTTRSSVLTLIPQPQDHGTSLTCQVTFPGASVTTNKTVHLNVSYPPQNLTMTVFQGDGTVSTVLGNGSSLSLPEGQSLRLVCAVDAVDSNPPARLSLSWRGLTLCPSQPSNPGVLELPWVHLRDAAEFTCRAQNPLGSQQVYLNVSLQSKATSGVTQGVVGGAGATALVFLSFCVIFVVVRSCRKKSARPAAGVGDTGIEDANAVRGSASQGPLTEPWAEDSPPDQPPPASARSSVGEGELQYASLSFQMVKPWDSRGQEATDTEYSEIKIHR
EXPERIMENT DESCRIPTION: Hs-Siglec9 ALPHAscreen SOP 20170721
Design: scale not given: direction of the effect not stated beside the values
ASSAY CONTEXT: 10 µM
MEASURED ATTRIBUTE: Percent Effect (%)
Give the quantity in %, number only.

Recorded Percent Effect, per entry:
COMPOUND | READOUT VALUE
CS(=O)(=O)NC1CCN(C(=O)NCCc2ccccc2F)CC1 | 9.26
CCn1cnnc1CNC(=O)c1cc(Cl)ccc1OC | -1.08
Cc1nc(C)n(CC2CCCCN2CCS(C)(=O)=O)n1 (stereo not drawn) | 0.818

Ask: So what Percent Effect did CCc1nc(CN2CCCN(C(=O)C(C)COC)CC2)cs1 (stereo not drawn) get with Sialic acid-binding Ig-like lectin 9 (Homo sapiens) (UniProt Q9Y336)?
Result: 1.76

Ask: Request: CC1(NC(=O)Cc2csc(C(C)(C)C)n2)CCS(=O)(=O)C1 (stereo not drawn)
Result: 20.2

Ask: Record: CN(C)CCN1CCO[C@H]2CN(Cc3cnn(C)c3)C[C@H]21
Result: 7.45

Ask: Note, next up: CCC(C)NC(=O)Cc1c(C)nc2c(c1C)c(=O)[nH]n2C (stereo not drawn)
Result: 14

Ask: // same read-out, input: CC(=O)N1CCN(C)CC(COCc2ccccc2)C1 (stereo not drawn)
Result: 3.51

Ask: Do the same for Cc1cccc(OCCC(=O)N2CCN(S(=O)(=O)N(C)C)CC2)c1C please
Result: -9.44

Ask: Queued: CN(C)CC1CSCCCN1C(=O)c1ccc(=O)[nH]c1 (stereo not drawn)
Result: 5.73

Ask: Cool, now CCN1CC2(CCC1=O)CCN(C(=O)c1ccc(Cl)cc1O)CC2
Result: 5.1

Ask: What do we get for O=S(=O)(NCC1CCN(c2ccccn2)CC1)c1ccccc1F ?
Result: -16.3

Ask: # repeat for CCc1cnc(CN(C(C)=O)C2CCN(CCc3cccs3)C2)o1 (stereo not drawn)
Result: -12.5

Ask: Query Cc1cnn(CC2CCCN2C(=O)c2cccc(-n3cnnn3)c2)c1 (stereo not drawn) next
Result: 4.88

Ask: What about this compound? O=C(NCc1cc[nH]n1)NC1CCCN(c2ncccn2)C1 (stereo not drawn)
Result: -0.458

Ask: Then CCO[C@@H]1CC[C@H]2[C@H]1OCCN2C(=O)C1CCOCC1 ?
Result: 5.16

Ask: Same thing, different compound: CC(C)Oc1ccccc1C1CC(=O)Nc2c1cnn2C (stereo not drawn)
Result: 5.91

---

TGT: Sialic acid-binding Ig-like lectin 9 (Homo sapiens) (UniProt Q9Y336)
EXPERIMENT DESCRIPTION: Hs-Siglec9 ALPHAscreen SOP 20170721
Design: scale not given: direction of the effect not stated beside the values
ASSAY CONTEXT: 10 µM
MEASURED ATTRIBUTE: Percent Effect (%)
Answer with a number only, understood to be in %.

Solved entries (count: 5):
MOLECULE | Percent Effect (%)
O=C(CN1CCCC1Cn1cncn1)NC(C1CC1)C1CC1 (stereo unspecified) | -0.594
Cc1nc(C(=O)N2CCCC(c3cccc(-n4ccnc4)n3)C2)co1 (stereo unspecified) | 1.23
Nc1nccc(NCc2cc3n(n2)CCCN(C2CCCCC2)C3)n1 | 1.73
CC(C)c1n[nH]c(C2CN(C(=O)CCn3ccccc3=O)CCO2)n1 (stereo unspecified) | -2.89
Cc1noc([C@H]2C[C@@H]3CCN(C(=O)N(C)C)C[C@H]3O2)n1 | 9.3

Ask: What value of measured Percent Effect is listed for O=C(c1cccc(CN2CCCC2)c1)N1CCCC(n2cncn2)C1 (stereo unspecified) ?
Result: -3.07

Ask: Also check CCn1ccnc1CN1CCN(CCOc2ccccc2OC)CC1
Result: 3.72

Ask: Another molecule: Cc1nc(C)c(CC(=O)Nc2nnc(C)s2)c(=O)[nH]1
Result: 2.92

Ask: Queued: COc1cc(C2CC(=O)Oc3cc(C)[nH]c(=O)c32)ccc1OC(F)F (stereo unspecified)
Result: -4.76

Ask: Another molecule to look at: COc1cc2cc(C(=O)O)n(C)c2cc1OC
Result: 10.6

Ask: What about this molecule? O=C(N[C@@H]1CCNC[C@H]1O)c1ccc(F)c(Cl)c1
Result: 3.76
